Please provide measured Enzyme degradation CDK2 (% remaining) @ 1 μM for the entries that follow.
# STUDY SYSTEM: CDK2 (Homo sapiens, UniProt P24941)
# Construct: endogenous in cells; host or cells: MDA-MB-231
# PROTOCOL DESCRIPTION: CDK protein degradation activity (Western blotting), CDK2
# Type: cell-based
# ASSAY CONDITIONS: MDA-MB-231 cells, 1 μM, 16 hours, Western blot

So what's the measured Enzyme degradation CDK2 (% remaining) @ 1 μM for this one? `Cc1cccc(C(=O)N[C@H]2C[C@@H](n3cnc4c(NCc5ccc(OCCCN6CCN(C(=O)COc7cccc8c7C(=O)N([C@H]7CCC(=O)NC7=O)C8=O)CC6)cc5)ncnc43)C2)n1`
30/30/30%

Try O=C1CCC(N2C(=O)c3ccc(N4CCC(CN5CCN(c6ccc(Nc7ncnc8c7ncn8[C@H]7C[C@@H](NC(=O)c8cccc(Cl)n8)C7)cc6)CC5)CC4)cc3C2=O)C(=O)N1 (stereo partly drawn) next.
10/10/10%

Try Cc1cccc(C(=O)NC2CC(n3cnc4c(NCc5ccc(N6CCN(CC7CCN(C(=O)CNc8cccc9c8C(=O)N([C@H]8CCC(=O)NC8=O)C9=O)CC7)CC6)cc5)ncnc43)C2)n1 (stereo partly drawn) next.
10/10/10%
